Structures can show the parent of a compound that is named as a salt.
# melting point per entry

Sample answers from the record:
compound: Cc1ccc(-c2ccc(S(C)(=O)=O)cc2)n1-c1ccc(-c2ccoc2)cc1
melting point: 200 to 202 °C
--
compound: Cc1ccc(-c2ccc(S(C)(=O)=O)cc2)n1-c1ccc(-c2cccs2)cc1
melting point: 185 to 186 °C
--
compound: Cc1cc(-c2cscn2)ccc1-c1cc(C(F)(F)F)nn1-c1ccc(S(C)(=O)=O)cc1 (as salt: methanesulfonate)
melting point: 174.7 °C
--
compound: CS(=O)(=O)c1ccc(-n2nc(C(N)=O)cc2-c2ccc(-c3ccco3)cc2)cc1F
melting point: 239 to 240 °C
--
compound: CS(=O)(=O)c1ccc(-n2cc(C(F)(F)F)nc2-c2ccc(-c3cscn3)cc2)cc1F
melting point: 112.5 to 115 °C
--
compound: COc1cc(-c2cc(C(F)(F)F)nn2-c2ccc(S(C)(=O)=O)cc2)ccc1-c1ccco1 (as salt: hydrochloride)
melting point: 138 to 140 °C

# evaluate next
For the compound CS(=O)(=O)c1ccc(-n2nc(C(F)(F)F)cc2-c2ccc(-c3cscn3)c(Cl)c2)cc1F , give its reported melting point.
108 to 110 °C

* * *

Where a name gives a salt, the structure may show the parent alone.
# melting point per entry

Sample answers from the record:
compound: Cc1ccc(-c2ccc(S(C)(=O)=O)cc2)n1-c1ccc(-c2ccoc2)c(Cl)c1
melting point: 165 to 168 °C
//
compound: CS(=O)(=O)c1ccc(-n2nc(C(F)(F)F)cc2-c2ccc(-c3cscn3)c(Cl)c2)cc1 (as salt: hydrochloride)
melting point: 128 to 130 °C

# evaluate next
For the compound CN(C)C(=O)c1cc(-c2ccc(-c3ccco3)cc2)n(-c2ccc(S(C)(=O)=O)c(F)c2)n1 (as salt: hydrochloride) , give its reported melting point.
167 to 168 °C

* * *

Counter-ions that a name gives are not always drawn.
# melting point per entry

Sample answers from the record:
compound: NS(=O)(=O)c1ccc(-n2nc(C(F)(F)F)cc2-c2ccc(-c3cscn3)cc2)cc1 (as salt: hydrochloride) [Example 100]
melting point: 188 to 190 °C
--
compound: CC1(C)OC(=O)C(c2ccc(-c3cscn3)cc2)=C1c1ccc(S(C)(=O)=O)cc1 [Example 166]
melting point: 215.8 °C
--
compound: Cc1cc(S(N)(=O)=O)ccc1-n1nc(C(F)(F)F)cc1-c1ccc(-c2ccco2)cc1 (as salt: hydrochloride) [Example 145]
melting point: 87 to 89 °C
--
compound: CNC(=O)c1cc(-c2ccc(-c3ccco3)cc2)n(-c2ccc(S(C)(=O)=O)c(F)c2)n1 [Example 131]
melting point: 196 to 198 °C
--
compound: Cc1nc(-c2ccc(-c3ccco3)cc2)c(-c2ccc(S(C)(=O)=O)cc2)o1 [Example 51]
melting point: 143 to 144 °C
--
compound: CS(=O)(=O)c1ccc(-n2nc(C(F)(F)F)cc2-c2ccc(-c3cscn3)c(F)c2)cc1 (as salt: hydrochloride) [Example 124]
melting point: 176 to 178 °C

For the compound Cc1cc(S(C)(=O)=O)ccc1-n1nc(C(F)(F)F)cc1-c1ccc(-c2ccco2)cc1 (as salt: hydrochloride) [Example 142] , give its reported melting point.
205 °C

* * *

Where a name gives a salt, the structure may show the parent alone.
# melting point per entry

compound: Cc1noc(-c2ccc(S(C)(=O)=O)cc2)c1-c1ccc(-c2cscn2)cc1 [Example 191]
melting point: 119 °C
--
compound: CCOC(=O)c1cc(-c2ccc(-c3ccco3)cc2)n(-c2ccc(S(C)(=O)=O)c(F)c2)n1 [Example 126]
melting point: 172 °C
--
compound: Cc1cc(-c2ccc(S(C)(=O)=O)cc2)n(-c2ccc(-c3ccco3)cc2)c1 [Example 58]
melting point: 133 to 135 °C
--
compound: CS(=O)(=O)c1ccc(-n2nc(C(=O)N3CCOCC3)cc2-c2ccc(-c3ccco3)cc2)cc1F [Example 130]
melting point: 221 to 222 °C
--
compound: COc1cc(-c2cc(C(F)(F)F)nn2-c2ccc(S(C)(=O)=O)cc2)ccc1-c1cocn1 (as salt: hydrochloride) [Example 111]
melting point: 171 to 173 °C

For the compound Cc1cc(-c2cc(C(F)F)nn2-c2ccc(S(C)(=O)=O)c(F)c2)ccc1-c1cscn1 [Example 194] , give its reported melting point.
122.9 °C

For the compound CCOc1cc(-n2nc(C(=O)O)cc2-c2ccc(-c3ccco3)cc2)ccc1S(C)(=O)=O [Example 127] , give its reported melting point.
256 to 257 °C

For the compound Cc1ccc(-c2ccc(S(C)(=O)=O)c(F)c2)n1-c1ccc(-c2ccoc2)cc1 [Example 36] , give its reported melting point.
147 to 150 °C

* * *

# melting point per entry

Sample answers from the record:
mol: CS(=O)(=O)c1ccc(-n2nc(C(F)(F)F)cc2-c2ccc(-c3ccoc3)cc2)cc1F
value: 74 to 76 °C
--
mol: CS(=O)(=O)c1ccc(-n2nc(C(F)(F)F)cc2-c2ccc(-c3cc4ccccc4o3)cc2)cc1
value: 137 to 138 °C
--
mol: Cc1ccc(-c2ccc(S(C)(=O)=O)cc2)n1-c1ccc(-c2ccc[nH]2)cc1
value: 225 to 227 °C

# evaluate next
For the molecule CS(=O)(=O)c1ccc(-n2ncc(C#N)c2-c2ccc(-c3ccco3)cc2)cc1F , give its reported melting point.
153 to 157 °C

* * *

# melting point per entry

Sample answers from the record:
mol: CS(=O)(=O)c1ccc(C2=C(c3ccc(-c4ccoc4)cc3)C(=O)OC2)cc1
melting point: 188 to 190 °C
--
mol: CS(=O)(=O)c1ccc(-n2nc(C(F)(F)F)cc2-c2ccc(-c3ncco3)cc2)cc1F
melting point: 140 to 142 °C

For the molecule Cc1nc(-c2ccc(S(N)(=O)=O)c(F)c2)c(-c2ccc(-c3cscn3)cc2)o1 , give its reported melting point.
192 to 194 °C

For the molecule Cc1cc(-c2ccc(S(C)(=O)=O)cc2)n(-c2ccc(-c3ccoc3)cc2)c1 , give its reported melting point.
154 to 156 °C

Recorded values, source patent US6949536B2.
